These data points were gathered from patent US20130109846A1.

Target: human CD28 (human, UniProt P10747 19-220)
Assay: cell-based or functional assay
ENDPOINT: Luciferase assay (EC50) (nM)

Recorded Luciferase assay (EC50), per entry:
Please report the measured Luciferase assay (EC50) for 1h-108 (other) VL: DIQMTQSPSSLSASVGDRVTITCRASQYIGTALNWYQQKPGKAPKLLIYRRSHLQSGVPSRFSGSGSGTDFTLTISSLQPEDFATYYCQQIALTPYTFGQGTKVEIKR
1900

Note down Luciferase assay (EC50) recorded for 1h-35-9 (other) VL: DIQMTQSPSSLSASVGDRVTITCRASQYIGSALGWYQQKPGKAPKLLIYRASNMQSGVPSRFSGSGSGTDFTLTISSLQPEDFATYYCQQLAIRPFTFGQGTKVEIKR
278

Consider the binder 1h-99-203 (other) VH: EVQLLESGGGLVQPGGSLRLSCAASGFTFYKANMSWARQAPGKGLEWVSWIEDTGTQTFYADSVKGRFTISRDNSKNTLYLQMNSLRAEDTAVYYCAKSPFGPLYGFDYRGQGTLVTVSS . State its measured Luciferase assay (EC50).
8

Provide one value: measured Luciferase assay (EC50) of 1h-84 (other) VL: DIQMTQSPSSLSASVGDRVTITCRASQSIGKGLMWYQQKPGKAPKLLIYWASMLQSGVPSRFSGSGSGTDFTLTISSLQPEDFATYYCQQSLRTPFTFGQGTEVEIKR
1500

Please indicate Luciferase assay (EC50) recorded for 1h-109 (other) VL: DIQMTQSPSSLSASVGDRVTITCRASQDIGASLLWYQQKPGKAPKLLIYFSSMLQSGVPSRFSGSGSGTDFTLTISSLQPEDFATYYCQQSGMRPFTFGQGTKVEIKR
1000

Give a short answer stating reported Luciferase assay (EC50) for 1h-79-15 (other) VL: DIQMTQSPSSLSASVGDRVTITCRASQPIGHSLGWYQQKPGKAPKLLIYWASTLQSGVPSRFSGSGSGTDFTITISSLQPEDFATYYCQQMLRTPFTFGQGTKVEIKR .
40

Supply Luciferase assay (EC50) value. Item: 1h-79-29 (other) VL: DIQMTQSPSSLSASVGDRVTITCRASQPIGHSLGWYQQKPGKAPKLLIYWASMLQSGVPSRFSGSGSGTDFTLTISSLQPEDFATYYCQQMLRTPFAFGQGTKVEIKR
43

State its Luciferase assay (EC50) for this binder: 1h-239-840 (other) VL: DIQMTQSPSSLSASVGDRVTITCRASQSIYPFLEWYQQKPGKAPKLLIYFASRLASGVPSRFSGSGSGTDFTLTISSLQPEDFATYYCLQNVTNPATFSQGTKVEIKR
9

Name the recorded Luciferase assay (EC50) of the binder listed here: 1h-99-218 (other) VH: EVQLLESGGGLVQPGGSLRLSCAASGFTFDKSNMSWARQAPGKGLEWVSWIEDTGTQTFYADSVKGRFTISRDNSKNTLYLQMNSLRAEDTAVYYCAKSPFGPLYGFDYRGQGTLVTVSS
10

Tell me Luciferase assay (EC50) reported for 1h-99-254 (other) VH: EVQLLESGGGLVQPGGSLRLSCAASGFTFDSANMSWARQAPGKGLEWVSWIESSGGQTFYADSVKGRFTISRDNSKNTLYLQMNSLRAEDTAVYYCAKSPFGPLYGFDYRGQGTLVTVSS
11

1: 1h-80-2 (other) VL: DIQMTQSPSSLSASVGDRVTITCRASQRIGSNLAWYQQKPGKAPKLLIYWASLLQSGVPSRFSGSGSETDFTLTISSLQPEDFATYYCQQTRSAPFAFGQGTKVEIKR
2: 1h-99-249 (other) VH: EVQLLESGGGLVQPGGSLRLSCAASGFTFDSANMSWVRQAPGKGLEWVSWIEDIGVQTFYADSVKGRFTISRDNSKNTLYLQMNSLRAEDTAVYYCAKSPFGPLYGFDYRGQGTLVTVSS
Smaller Luciferase assay (EC50) value, 1 vs 2 ? Give the label of your selection.
2
